System: A673 (Ewing's Sarcoma)
Experiment: Bliss excess, mean over the matrix (fraction); higher = more synergy;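 also: after 72 h of two-drug dosing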
Ranges used to classify Bliss excess: bin 1: < -0.02; bin 2: ≥ -0.02 and < 0.03; bin 3: ≥ 0.03

Into which bin does this compound go? Cc1c2c(nn1C)CSCc1cc(n(C)n1)CSc1cc(c3ccccc3c1)OCCCc1c(C(=O)O)n(C)c3c-2c(Cl)ccc13 [AZD5991] + CCN(CCO)CCCOc1ccc2c(Nc3cc(CC(=O)Nc4cccc(F)c4)[nH]n3)ncnc2c1 [AZD2811] (first compound max 1 µM, 7x7, partner max 1 µM)
bin 3

Into which bin does this compound go? CC1(C)CCC(CN2CCN(c3ccc(C(=O)NS(=O)(=O)c4ccc(NCC5CCOCC5)c([N+](=O)[O-])c4)c(Oc4cnc5[nH]ccc5c4)c3)CC2)=C(c2ccc(Cl)cc2)C1 [Venetoclax] + Cc1cc2ncnn2cc1Nc1ncc2c(n1)n(C1CCOCC1)c(=O)n2C [AZD7648] (first compound max 1 µM, 7x7, partner max 10 µM)
bin 2

Into which bin does this compound go? NC1(C(=O)N[C@@H](CCO)c2ccc(Cl)cc2)CCN(c2ncnc3[nH]ccc23)CC1 [Capivasertib] + CC(C)n1c(=O)n(C)c2cnc3cc(F)c(-c4ccc(OCCCN5CCCCC5)nc4)cc3c21 [AZD1390] (first compound max 10 µM, 7x7, partner max 0.3 µM)
bin 1

Into which bin does this compound go? CCc1c2c(nc3ccc(O)cc13)-c1cc3c(c(=O)n1C2)COC(=O)[C@]3(O)CC [SN-38] + O=C(c1cc(Cc2n[nH]c(=O)c3ccccc23)ccc1F)N1CCN(C(=O)C2CC2)CC1 [Olaparib] (first compound max 0.3 µM, 7x7, partner max 10 µM)
bin 3

Into which bin does this compound go? CCN(CCO)CCCOc1ccc2c(Nc3cc(CC(=O)Nc4cccc(F)c4)[nH]n3)ncnc2c1 [AZD2811] + C=CCn1c(=O)c2cnc(Nc3ccc(N4CCN(C)CC4)cc3)nc2n1-c1cccc(C(C)(C)O)n1 [AZD1775] (first compound max 1 µM, partner max 1 µM)
bin 1

Into which bin does this compound go? CN(CCO)CC[C@H](CSc1ccccc1)Nc1ccc(S(=O)(=O)NC(=O)c2ccc(N3CCC([C@@H](O)c4ccccc4-c4ccc(Cl)cc4)CC3)cc2)cc1S(=O)(=O)C(F)(F)F [AZD4320] + CCN(CCO)CCCOc1ccc2c(Nc3cc(CC(=O)Nc4cccc(F)c4)[nH]n3)ncnc2c1 [AZD2811] (first compound max 1 µM, 7x7, partner max 1 µM)
bin 3

Into which bin does this compound go? C=CCn1c(=O)c2cnc(Nc3ccc(N4CCN(C)CC4)cc3)nc2n1-c1cccc(C(C)(C)O)n1 [AZD1775] + O=C(c1cc(Cc2n[nH]c(=O)c3ccccc23)ccc1F)N1CCN(C(=O)C2CC2)CC1 [Olaparib] (first compound max 1 µM, partner max 10 µM)
bin 2

Into which bin does this compound go? Cc1c2c(nn1C)CSCc1cc(n(C)n1)CSc1cc(c3ccccc3c1)OCCCc1c(C(=O)O)n(C)c3c-2c(Cl)ccc13 [AZD5991] + C[C@@H](Nc1cc(F)cc(F)c1)c1cc(C(=O)N(C)C)cc2c(=O)cc(N3CCOCC3)oc12 [AZD8186] (first compound max 1 µM, 7x7, partner max 3 µM)
bin 2

Into which bin does this compound go? N#Cc1cnc(Nc2cc(NC[C@H]3CNCCO3)c(C(F)(F)F)cn2)cn1 [SRA737] + Nc1ccn([C@@H]2O[C@H](CO)[C@@H](O)C2(F)F)c(=O)n1 [Gemcitabine] (first compound max 10 µM, 7x7, partner max 0.3 µM)
bin 3

Into which bin does this compound go? CN(C)CCCOc1ccc(-c2ccc3ncc4c(c3c2)n(C2CCOCC2)c(=O)n4C)cn1 [AZD0156] + CCN(CCO)CCCOc1ccc2c(Nc3cc(CC(=O)Nc4cccc(F)c4)[nH]n3)ncnc2c1 [AZD2811] (first compound max 1 µM, 7x7, partner max 1 µM)
bin 2

Into which bin does this compound go? O=C(c1cc(Cc2n[nH]c(=O)c3ccccc23)ccc1F)N1CCN(C(=O)C2CC2)CC1 [Olaparib] + COc1nnc2ccc(N3CCC(c4ccc(OCCN5CCN(C)C(=O)[C@H]5C)cc4)CC3)nn12 [AZD5153] (first compound max 10 µM, 7x7, partner max 1 µM)
bin 1

Into which bin does this compound go? COc1cccc(OCCCN)c1-c1cc(Nc2cnc(C#N)cn2)n[nH]1 [Prexasertib] + O=C(c1cc(Cc2n[nH]c(=O)c3ccccc23)ccc1F)N1CCN(C(=O)C2CC2)CC1 [Olaparib] (first compound max 1 µM, 7x7, partner max 10 µM)
bin 1

Into which bin does this compound go? CN(CCO)CC[C@H](CSc1ccccc1)Nc1ccc(S(=O)(=O)NC(=O)c2ccc(N3CCC([C@@H](O)c4ccccc4-c4ccc(Cl)cc4)CC3)cc2)cc1S(=O)(=O)C(F)(F)F [AZD4320] + CS(=O)(=O)CCNCc1ccc(-c2ccc3ncnc(Nc4ccc(OCc5cccc(F)c5)c(Cl)c4)c3c2)o1 [Lapatinib] (first compound max 1 µM, 7x7, partner max 10 µM)
bin 3

Into which bin does this compound go? CN(CCO)CC[C@H](CSc1ccccc1)Nc1ccc(S(=O)(=O)NC(=O)c2ccc(N3CCC([C@@H](O)c4ccccc4-c4ccc(Cl)cc4)CC3)cc2)cc1S(=O)(=O)C(F)(F)F [AZD4320] + C1CN(CCC1(C(=O)N[C@@H](CCO)C2=CC=C(C=C2)Cl)N)C3=NC=NC4=C3C=CN4 [Capivasertib] (first compound max 1 µM, 7x7, partner max 3 µM)
bin 2

Into which bin does this compound go? C=CCn1c(=O)c2cnc(Nc3ccc(N4CCN(C)CC4)cc3)nc2n1-c1cccc(C(C)(C)O)n1 [AZD1775] + CCc1c2c(nc3ccc(O)cc13)-c1cc3c(c(=O)n1C2)COC(=O)[C@]3(O)CC [SN-38] (first compound max 1 µM, partner max 0.3 µM)
bin 2

---

Tested on: LS-123 (Colorectal Carcinoma)
Experiment: Bliss excess, mean over the matrix (fraction); higher = more synergy
Bliss excess vs -0.02: at or above is condition met, below is condition not met.

I'd appreciate it if you could say whether COc1cc2c(cc1OCCCCCOc1cc3c(cc1OC)C(=O)N1C=C(C)C[C@H]1C=N3)N=C[C@@H]1CC(C)=CN1C2=O [SG3199] + O=C(c1cc(Cc2n[nH]c(=O)c3ccccc23)ccc1F)N1CCN(C(=O)C2CC2)CC1 [Olaparib] (first compound max 0.001 µM, 7x7, partner max 10 µM) has Bliss excess at least equal to -0.02.
condition not met

I'd appreciate it if you could say whether CN(C)CCCOc1ccc(-c2ccc3ncc4c(c3c2)n(C2CCOCC2)c(=O)n4C)cn1 [AZD0156] + C[C@@H]1COCCN1C2=NC(=NC(=C2)C3(CC3)[S@](=N)(=O)C)C4=C5C=CNC5=NC=C4 [AZD6738] (first compound max 1 µM, 7x7, partner max 10 µM) has Bliss excess at least equal to -0.02.
condition not met

I'd appreciate it if you could say whether CC1(C)CCC(CN2CCN(c3ccc(C(=O)NS(=O)(=O)c4ccc(NCC5CCOCC5)c([N+](=O)[O-])c4)c(Oc4cnc5[nH]ccc5c4)c3)CC2)=C(c2ccc(Cl)cc2)C1 [Venetoclax] + CCN(CCO)CCCOc1ccc2c(Nc3cc(CC(=O)Nc4cccc(F)c4)[nH]n3)ncnc2c1 [AZD2811] (first compound max 1 µM, 7x7, partner max 1 µM) has Bliss excess at least equal to -0.02.
condition not met

I'd appreciate it if you could say whether NC1(C(=O)N[C@@H](CCO)c2ccc(Cl)cc2)CCN(c2ncnc3[nH]ccc23)CC1 [Capivasertib] + CC(C)n1c(=O)n(C)c2cnc3cc(F)c(-c4ccc(OCCCN5CCCCC5)nc4)cc3c21 [AZD1390] (first compound max 10 µM, 7x7, partner max 0.3 µM) has Bliss excess at least equal to -0.02.
condition not met

I'd appreciate it if you could say whether Cc1cc2ncnn2cc1Nc1ncc2c(n1)n(C1CCOCC1)c(=O)n2C [AZD7648] + CCN(CCO)CCCOc1ccc2c(Nc3cc(CC(=O)Nc4cccc(F)c4)[nH]n3)ncnc2c1 [AZD2811] (first compound max 10 µM, 7x7, partner max 1 µM) has Bliss excess at least equal to -0.02.
condition met

I'd appreciate it if you could say whether CCc1c2c(nc3ccc(O)cc13)-c1cc3c(c(=O)n1C2)COC(=O)[C@]3(O)CC [SN-38] + CN(C)CCCOc1ccc(-c2ccc3ncc4c(c3c2)n(C2CCOCC2)c(=O)n4C)cn1 [AZD0156] (first compound max 0.3 µM, 7x7, partner max 1 µM) has Bliss excess at least equal to -0.02.
condition not met

I'd appreciate it if you could say whether COc1nnc2ccc(N3CCC(c4ccc(OCCN5CCN(C)C(=O)[C@H]5C)cc4)CC3)nn12 [AZD5153] + CC1(C)CCC(CN2CCN(c3ccc(C(=O)NS(=O)(=O)c4ccc(NCC5CCOCC5)c([N+](=O)[O-])c4)c(Oc4cnc5[nH]ccc5c4)c3)CC2)=C(c2ccc(Cl)cc2)C1 [Venetoclax] (first compound max 1 µM, 7x7, partner max 1 µM) has Bliss excess at least equal to -0.02.
condition met

I'd appreciate it if you could say whether COc1cccc(OCCCN)c1-c1cc(Nc2cnc(C#N)cn2)n[nH]1 [Prexasertib] + O=C(c1cc(Cc2n[nH]c(=O)c3ccccc23)ccc1F)N1CCN(C(=O)C2CC2)CC1 [Olaparib] (first compound max 1 µM, 7x7, partner max 10 µM) has Bliss excess at least equal to -0.02.
condition not met
